Test: viability gain of MRP-1-high H69AR cells under doxorubicin, pilot screen, MRP-1 activator project, CellTiter-Glo, duplicate (AID 807);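 also: compound pretreatment 18-22 h then 72 h combined with doxorubicin; 0% = doxorubicin alone and 100% = vehicle without doxorubicin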
Conditions: H69AR viability with doxorubicin, CellTiter-Glo luminescence; at 10 µM; hits give high values
ENDPOINT_NAME: viability increase (%)

COMPOUND: Cc1cc2cc(CNC(=O)Cc3cccs3)ccc2n1C
MEASURE_UNIT: %
READING: -4.96
//
COMPOUND: Cc1ccc(S(=O)(=O)N(C)CCCC(=O)N2CCOCC2)cc1
MEASURE_UNIT: %
READING: -1.27
//
COMPOUND: CC1=C(C(=O)OCc2ccccc2)C(c2ccc(N3CCOCC3)cc2)NC(=O)N1 (configuration not stated)
MEASURE_UNIT: %
READING: 0.5
//
COMPOUND: CC(=O)c1cccc(NC(=O)c2cc3ccccn3n2)c1
MEASURE_UNIT: %
READING: -2.31
//
COMPOUND: O=C1CC(c2ccco2)Sc2nc3ccccc3n21 (configuration not stated)
MEASURE_UNIT: %
READING: -3.98
//
COMPOUND: C/C(=C1/SC(N2CCOCC2)=NC1=O)c1ccc(Br)cc1
MEASURE_UNIT: %
READING: -1.99
//
COMPOUND: Cc1nc2ccccc2c2oc(C(=O)NCCN3CCN(C)CC3)cc12
MEASURE_UNIT: %
READING: -1.69
//
COMPOUND: O=C(CCCc1ccccc1)NCCN1CCOCC1
MEASURE_UNIT: %
READING: 1.56
//
COMPOUND: COc1cccc(-c2nc(C(N)=O)c3[nH]c(=O)n(-c4ccccc4)c3n2)c1OC
MEASURE_UNIT: %
READING: -4.58
//
COMPOUND: CCCc1ccc(OCC(O)CN2CCN(c3ccccc3)CC2)cc1 (configuration not stated)
MEASURE_UNIT: %
READING: -0.47
//
COMPOUND: O=C(CSc1ccccn1)c1ccc(F)cc1
MEASURE_UNIT: %
READING: -0.02
//
COMPOUND: CCn1c(SCc2nc(-c3ccccc3)no2)nc2ccccc21
MEASURE_UNIT: %
READING: 1.73
